test: Volume of distribution in human at 0.43 mg/kg, iv; type: ADME, organism-based; parameters: dose 0.43 mg/kg, route intravenous; details: in vivo
EXPERIMENTAL_ENDPOINT: Vd (L/kg)
Respond with the bare value in L/kg.

Exercise: Can you share its Vd? I mean this compound: CCOc1ncc(S(=O)(=O)N2CCN(CC)CC2)cc1-c1nc2c(CC)n(CCOC)nc2c(=O)[nH]1
Key: 2.8

----------
assay: Aqueous solubility of the compound in 0.2 M lactate buffer at pH 4.3; format: physicochemical
EXPERIMENTAL_ENDPOINT: solubility

Exercise: Can you share its solubility? I mean this molecule: CCOc1ncc(S(=O)(=O)N2CCN(CC)CC2)cc1-c1nc2c(CC)n(CCOC)nc2c(=O)[nH]1
Key: > 14 mg/mL
